# PROTOCOL: The drug is tested on Coprococcus comes strain: ATCC27758 for biotransformation under anaerobic condition. The drug concentrations were measured over 6 timepoints collected between 0 and 12 hours of incubation by liquid-chromatography-coupled mass spectrometry (LC–MS)
# Assay type: ADME
# Design: dose 5 uM, timepoint 0, 1.5, 3, 6, 9, 12 hours
# CONDITION_SUMMARY: 5 µM
OUTCOME_MEASURE: Bacterial Biotransformation

Worked set:
COMPOUND	Bacterial Biotransformation
Cn1cnc([N+](=O)[O-])c1Sc1ncnc2nc[nH]c12	Compound metabolized
NS(=O)(=O)c1cc(C(=O)O)c(NCc2ccco2)cc1Cl [FUROSEMIDE]	Compound NOT metabolized
C[C@@H]1C[C@H]2[C@@H]3CCC4=CC(=O)C=C[C@]4(C)[C@@]3(F)[C@@H](O)C[C@]2(C)[C@@]1(O)C(=O)CO	Compound NOT metabolized
CO[C@H]1C[C@@H]2CC[C@@H](C)[C@@](O)(O2)C(=O)C(=O)N2CCCC[C@H]2C(=O)O[C@H]([C@H](C)C[C@@H]2CC[C@@H](OCCO)[C@H](OC)C2)CC(=O)[C@H](C)/C=C(\C)[C@@H](O)[C@@H](OC)C(=O)[C@H](C)C[C@H](C)/C=C/C=C/C=C/1C	Compound metabolized
CCC(C)(C)C(=O)O[C@H]1C[C@@H](C)C=C2C=C[C@H](C)[C@H](CC[C@@H]3C[C@@H](O)CC(=O)O3)[C@H]21	Compound metabolized

# input for lookup
Exercise: Given CNC(=C[N+](=O)[O-])NCCSCc1ccc(CN(C)C)o1 , state its recorded Bacterial Biotransformation.
Key: Compound NOT metabolized

###

# PROTOCOL: The drug is tested on the gut metagenome community of P-02 with ENA study accession number: PRJEB31790 for biotransformation under anaerobic condition. The drug concentrations were measured over 7 timepoints collected between 0 and 12 hours of incubation by liquid-chromatography-coupled mass spectrometry (LC–MS)
# Format: ADME
# Parameters: dose 5 uM, timepoint 0, 0.75, 1.5, 3, 6, 9, 12 hours
# CONDITION_SUMMARY: 5 µM
OUTCOME_MEASURE: Bacterial Biotransformation

> print(dat)
                                   molecule              outcome.measure                meas.value
1  C[C@]12CCC(=O)C=C1CC[C@@H]1[C@@H]2[C@@H](O)C[C@@]2(C)[C@H]1CC[C@]2(O)C(=O)CO [HYDROCORTISONE]  Bacterial Biotransformation  Compound NOT metabolized
2  CC(C)NCC(O)COc1ccc(CC(N)=O)cc1 (stereo not given)  Bacterial Biotransformation  Compound NOT metabolized
3   Cn1cnc([N+](=O)[O-])c1Sc1ncnc2nc[nH]c12  Bacterial Biotransformation  Compound NOT metabolized
4  CCC(C)(C)C(=O)O[C@H]1C[C@@H](C)C=C2C=C[C@H](C)[C@H](CC[C@@H]3C[C@@H](O)CC(=O)O3)[C@H]21  Bacterial Biotransformation  Compound NOT metabolized

###

# PROTOCOL: The drug is tested on the gut metagenome community of A-01 with ENA study accession number: PRJEB31790 for biotransformation under microaerobic condition. The drug concentrations were measured over 7 timepoints collected between 0 and 12 hours of incubation by liquid-chromatography-coupled mass spectrometry (LC–MS)
# Format: ADME
# Set-up: dose 5 uM, timepoint 0, 0.75, 1.5, 3, 6, 9, 12 hours
# CONDITION_SUMMARY: 5 µM
OUTCOME_MEASURE: Bacterial Biotransformation

> print(dat)
                                   molecule                meas.value
1  C[C@H]1C[C@H]2[C@@H]3CCC4=CC(=O)C=C[C@]4(C)[C@@]3(F)[C@@H](O)C[C@]2(C)[C@@]1(O)C(=O)CO [BETAMETHASONE]  Compound NOT metabolized
2  C[C@]12C=CC(=O)C=C1CC[C@@H]1[C@@H]2C(=O)C[C@@]2(C)[C@H]1CC[C@]2(O)C(=O)CO [PREDNISONE]      Compound metabolized
3  COc1c(C)c2c(c(O)c1C/C=C(\C)CCC(=O)OCCN1CCOCC1)C(=O)OC2 [MYCOPHENOLATE MOFETIL]      Compound metabolized
4  CC(C)NCC(O)COc1ccc(CC(N)=O)cc1 (centres undefined) [ATENOLOL]  Compound NOT metabolized
